- Target or system: UniProt P97266
- Sequence (P97266 whole entry): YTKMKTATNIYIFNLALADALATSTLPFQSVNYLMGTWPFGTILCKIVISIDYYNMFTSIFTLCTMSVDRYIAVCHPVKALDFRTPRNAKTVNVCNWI
Quantity kind: Ki (nM)
Report only the number, with the unit nM understood.

{"Structure": "OC[C@]12CC[C@@]3(O1)[C@H]1Cc4ccc(O)cc4[C@@]3(CCN1CC1CC1)C2", "Units label": "nM", "Observed": 0.145}

Now for the compound whose Ki we want.
Please tell me the measured Ki for O=C1C[C@]23CCN(CC4CC4)[C@H](Cc4ccc(O)cc42)[C@]32CC[C@H]1O2 ; system: UniProt P97266. 0.397

----------
- Assay overview: Displacement of [3H]NTI from delta opioid receptor in guinea pig forebrain
- Design: species or system Cavia porcellus
Listing of entries alongside the reported pKi.
// pKi: -log10(molar conc.)

The following molecules have reported results that may help.
{"Molecule": "OC[C@]12CC[C@@]3(O1)[C@H]1Cc4ccc(O)cc4[C@@]3(CCN1CC1CC1)C2", "pKi": 8.46}
{"Molecule": "O=C1CC[C@@]2(O)[C@H]3Cc4ccc(O)c5c4[C@@]2(CCN3CC2CC2)[C@H]1O5 [NALTREXONE]", "pKi": 7.68}

Report measured pKi; entry is O=C1C[C@]23CCN(CC4CC4)[C@H](Cc4ccc(O)cc42)[C@]32CC[C@H]1O2 8.16

----------
- Target or system: Kappa-type opioid receptor (Cavia porcellus, UniProt P41144)
- Sequence (P41144 whole entry): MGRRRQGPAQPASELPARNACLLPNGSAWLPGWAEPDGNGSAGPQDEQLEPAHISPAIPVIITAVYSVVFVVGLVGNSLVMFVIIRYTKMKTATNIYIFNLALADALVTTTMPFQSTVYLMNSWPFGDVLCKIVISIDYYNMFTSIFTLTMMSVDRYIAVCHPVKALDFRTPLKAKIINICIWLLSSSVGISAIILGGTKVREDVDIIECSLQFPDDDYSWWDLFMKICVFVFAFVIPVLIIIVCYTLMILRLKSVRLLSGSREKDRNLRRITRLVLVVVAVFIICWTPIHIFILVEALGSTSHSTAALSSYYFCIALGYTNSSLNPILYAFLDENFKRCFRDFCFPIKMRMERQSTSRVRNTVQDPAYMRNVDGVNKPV
compounds and their reported Ki
Answer in nM, number only, no unit symbol.

{"Structure": "OC[C@]12CC[C@@]3(O1)[C@H]1Cc4ccc(O)cc4[C@@]3(CCN1CC1CC1)C2", "Ki, nM": 0.102}

Next item in the queue.
Please look at this compound and report its Ki: O=C1C[C@]23CCN(CC4CC4)[C@H](Cc4ccc(O)cc42)[C@]32CC[C@H]1O2 0.233
